Origin of values: ChEMBL document CHEMBL3632606

# procedureDetails: Half life in mouse liver microsomes at 2 uM by LC-MS/MS analysis
# Assay type: ADME
measurementLabel: half-life at 2 µM (min)

{"smilesEntry": "COc1cc(-c2nccc3ccc(-c4ccc5[nH]ccc5c4)cc23)cc(OC)c1OC", "result": 2.1}
{"smilesEntry": "COc1cc(-c2nccc3[nH]c(-c4cccc5[nH]ccc45)nc23)cc(OC)c1OC", "result": 10.5}
{"smilesEntry": "Fc1ccc(-c2nccc3ccc(-c4ccc5[nH]ccc5c4)cc23)cc1", "result": 2}
{"smilesEntry": "COc1cc(-c2nccc3[nH]c(-c4ccc5[nH]ccc5c4)nc23)cc(OC)c1OC", "result": 16.1}
{"smilesEntry": "COc1cc(-c2nccc3[nH]c(-c4ccc5cc[nH]c5c4)nc23)cc(OC)c1OC", "result": 27.7}
